Cited source for all entries: patent US9617251B2

Experiment: Aqueous solubility in buffer vs acetonitrile/water (1/1), LC-UV
Format: physicochemical
Settings: kinetic from dmso stock, buffer pH 2.2, 24 h shaking, 2.5% DMSO
Would you please tag the item t when its solubility at 24 h is 70 µg/mL or above, and f when it is below?

# Record smiles, Group label
data = [
    ("Cc1cc(OCC(C)(C)O)cc(C)c1-c1ccc(F)c2c1CC[C@H]2Nc1ccc([C@H]2C[C@@H]2C(=O)O)cn1", "t"),
    ("Cc1cc(OCCC(C)(C)O)cc(C)c1-c1ccc(F)c2c1CC[C@H]2Nc1ccc([C@H]2C[C@@H]2C(=O)O)cn1", "t"),
    ("COc1cc(OC)c(F)c(-c2ccc(F)c3c2CC[C@H]3Nc2ccc([C@H]3C[C@@H]3C(=O)O)cn2)c1F", "t"),
    ("O=C(O)[C@H]1C[C@@H]1c1ccc(N[C@@H]2CCc3c(-c4c(F)cccc4F)ccc(F)c32)nc1", "t"),
    ("Cc1cccc(C)c1-c1ccc(F)c2c1CC[C@H]2Nc1ccc([C@H]2C[C@@H]2C(=O)O)cn1", "f"),
]

Let us examine a further case.
Form field: solubility at 24 h at least 70 µg/mL? Entry: COc1cc(C)c(-c2ccc(F)c3c2CC[C@H]3Nc2ccc([C@H]3C[C@@H]3C(=O)O)cn2)c(C)c1
f

====

Target: human GPR40 receptor (Homo sapiens)
Experiment: IP1 accumulation measurements using the IPOne assay system (1321N1 cells stably expressing human GPR40 receptor)
Details: 1321N1 cells expressing human GPR40, 1 h stimulation at 37° C.
Recorded metric: pEC50
pEC50 is a log-scale quantity: -log10 of the concentration expressed in molar.

Use these answered entries as a reference point.
# Compound, pEC50
measured = [
    ("O=C(O)[C@H]1C[C@@H]1c1ccc(N[C@@H]2CCc3c(-c4ccccc4C(F)(F)F)ccc(F)c32)nc1 [Example 74]", 7.31),
    ("Cc1cc(-c2ccn(C)c(=O)c2)cc(C)c1-c1cccc2c1CC[C@H]2Nc1ccc([C@H]2C[C@@H]2C(=O)O)cn1 [Example 81]", 8.10),
    ("O=C(O)[C@H]1C[C@@H]1c1ccc(N[C@@H]2CCc3c(-c4ccccc4C(F)(F)F)cccc32)nc1 [Example 85]", 7.04),
    ("Cc1cc(OC2CCOCC2)cc(C)c1-c1ccc(F)c2c1CC[C@H]2Nc1ccc([C@H]2C[C@@H]2C(=O)O)cn1 [Example 15]", 7.74),
    ("COc1cc(OC)c(F)c(-c2ccc(F)c3c2CC[C@H]3Nc2ccc([C@H]3C[C@@H]3C(=O)O)cn2)c1F [Example 57]", 6.97),
]

Record N#CC1(c2ccccc2-c2ccc(F)c3c2CC[C@H]3Nc2ccc([C@H]3C[C@@H]3C(=O)O)cn2)CC1 [Example 46] / human GPR40 receptor (Homo sapiens), pEC50 recorded as 6.20

Entry COc1cc(OC)c(Cl)c(-c2ccc(F)c3c2CC[C@H]3Nc2ccc([C@H]3C[C@@H]3C(=O)O)cn2)c1Cl [Example 53] : pEC50 on human GPR40 receptor (Homo sapiens) = 7.89

====

Target: human GPR40 receptor (Homo sapiens, UniProt O14842)
Sequence (O14842 whole entry): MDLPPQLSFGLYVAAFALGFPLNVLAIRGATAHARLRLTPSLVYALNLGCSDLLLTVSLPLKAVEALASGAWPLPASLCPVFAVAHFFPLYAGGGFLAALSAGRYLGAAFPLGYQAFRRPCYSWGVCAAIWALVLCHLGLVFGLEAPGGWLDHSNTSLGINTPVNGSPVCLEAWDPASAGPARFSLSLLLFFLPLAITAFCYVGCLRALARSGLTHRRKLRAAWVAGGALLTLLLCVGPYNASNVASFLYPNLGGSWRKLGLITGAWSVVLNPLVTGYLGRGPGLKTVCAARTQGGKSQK
Experiment: IP1 accumulation measurements using the IPOne assay system (1321N1 cells stably expressing human GPR40 receptor)
Format: cell-based
Conditions: 1321N1 cells expressing human GPR40, 1 h stimulation at 37° C.
Recorded metric: pEC50
A value of pEC50 is the negative decimal logarithm of a concentration given in moles per litre.

Examples with their reported pEC50 follow.
# Record smiles, pEC50
measured = [
    ("Cc1cc(-c2nnn(C)n2)cc(C)c1-c1ccc(F)c2c1CC[C@H]2Nc1ccc([C@H]2C[C@@H]2C(=O)O)cn1", 8.40),
    ("COc1cc(OC)c(-c2ccc(F)c3c2CC[C@H]3Nc2ccc([C@H]3C[C@@H]3C(=O)O)cn2)c(OC)c1", 6.37),
    ("Cc1cc(CO)cc(C)c1-c1ccc(F)c2c1CC[C@H]2Nc1ccc([C@H]2C[C@@H]2C(=O)O)cn1", 7.15),
]

Recorded result, COc1cc(F)c(-c2cccc3c2CC[C@H]3Nc2ccc([C@H]3C[C@@H]3C(=O)O)cn2)c(F)c1 , pEC50: 6.67

====

Assay: Aqueous solubility in buffer vs acetonitrile/water (1/1), LC-UV
Assay type: physicochemical
Conditions: kinetic from dmso stock, buffer pH 2.2, 24 h shaking, 2.5% DMSO
Listed here are compounds together with their documented solubility at 24 h.
Express the result in µg/mL but write the number alone.

# Record smiles, Value unit, solubility at 24 h
records = [
    ("Cc1cc(C#N)cc(C)c1-c1ccc(F)c2c1CC[C@H]2Nc1ccc([C@H]2C[C@@H]2C(=O)O)cn1", "µg/mL", 66),
    ("Cc1cc(OCC2(O)CCSCC2)cc(C)c1-c1ccc(F)c2c1CC[C@H]2Nc1ccc([C@H]2C[C@@H]2C(=O)O)cn1", "µg/mL", 89),
]

Okay, next one:
// field: solubility at 24 h; key: Cc1cc(-c2ccnn2C)cc(C)c1-c1ccc(F)c2c1CC[C@H]2Nc1ccc([C@H]2C[C@@H]2C(=O)O)cn1 ; value = 93

====

Values of IC50 reported for cytochrome P450 2C9-isoenzyme (Homo sapiens) appear below.
# number only, unit µM dropped from output

Answered cases to consult:
# Record smiles, Value unit, IC50
data = [
    ("Cc1cc(OCc2ccccc2)cc(C)c1-c1ccc(F)c2c1CC[C@H]2Nc1ccc([C@H]2C[C@@H]2C(=O)O)cn1", "µM", 24),
    ("Cc1cc(-c2nnn(C)n2)cc(C)c1-c1cccc2c1CC[C@H]2Nc1ccc([C@H]2C[C@@H]2C(=O)O)cn1", "µM", 48),
    ("COc1cc(-c2cc(C)c(-c3ccc(F)c4c3CC[C@H]4Nc3ccc([C@H]4C[C@@H]4C(=O)O)cn3)c(C)c2)ccn1", "µM", 18),
]

Now, please, on to the next molecule.
Form field IC50 for item CC(C)c1ccccc1-c1ccc(F)c2c1CC[C@H]2Nc1ccc([C@H]2C[C@@H]2C(=O)O)cn1 on cytochrome P450 2C9-isoenzyme (Homo sapiens): 14

====

Assay: Aqueous solubility in buffer vs acetonitrile/water (1/1), LC-UV
Format: physicochemical
Details: kinetic from dmso stock, buffer pH 2.2, 24 h shaking, 2.5% DMSO
Recorded metric: solubility at 24 h (µg/mL)
Give a bare numeral; the unit µg/mL is implied.

Measured solubility at 24 h of N#CC1(c2ccccc2-c2ccc(F)c3c2CC[C@H]3Nc2ccc([C@H]3C[C@@H]3C(=O)O)cn2)CC1 [Example 46] : 85

Noted for Cc1cc(-c2nnn(CC(C)(C)O)n2)cc(C)c1-c1ccc(F)c2c1CC[C@H]2Nc1ccc([C@H]2C[C@@H]2C(=O)O)cn1 [Example 14] : its solubility at 24 h reads 83

Memo: Cc1cc(CO)cc(C)c1-c1ccc(F)c2c1CC[C@H]2Nc1ccc([C@H]2C[C@@H]2C(=O)O)cn1 [Example 28] , reported solubility at 24 h: 87

====

Target: human GPR40 receptor (Homo sapiens)
Experiment: IP1 accumulation measurements using the IPOne assay system (1321N1 cells stably expressing human GPR40 receptor)
Details: 1321N1 cells expressing human GPR40, 1 h stimulation at 37° C.
Recorded metric: log10 of EC50 (log10 of the value in nM)
Base-10 log of EC50, unit nM.

Sample answers from the record:
# Compound, Numeric value
rows = [
    ("Cc1cc(-c2nnn(C)n2)cc(C)c1-c1cccc2c1CC[C@H]2Nc1ccc(C2C[C@@H]2C(=O)O)cn1 (mixture of isomers) [Example 5]", 1.20),
    ("Cc1cc(-c2ccnn2C)cc(C)c1-c1ccc(F)c2c1CC[C@H]2Nc1ccc([C@H]2C[C@@H]2C(=O)O)cn1 [Example 31]", 1.49),
]

Recorded result, Cc1cc(OCCC(C)(C)O)cc(C)c1-c1ccc(F)c2c1CC[C@H]2Nc1ccc(C2C[C@@H]2C(=O)O)cn1 (mixture of isomers) [Example 8] , log10 of EC50: 1.20

Documented log10 of EC50 of Cc1cc(OCCC(C)(C)O)cc(C)c1-c1ccc(F)c2c1CC[C@H]2Nc1ccc([C@H]2C[C@@H]2C(=O)O)cn1 [Example 4] : 0.90

====

Target: human GPR40 receptor (Homo sapiens, UniProt O14842)
Assay: IP1 accumulation measurements using the IPOne assay system (1321N1 cells stably expressing human GPR40 receptor)
Details: 1321N1 cells expressing human GPR40, 1 h stimulation at 37° C.
Threshold 20 nM: EC50 strictly smaller gives Yes, otherwise No.

# Record smiles, Group label
measured = [
    ("Cc1cc(-c2nnnn2CC(C)(C)O)cc(C)c1-c1ccc(F)c2c1CC[C@H]2Nc1ccc([C@H]2C[C@@H]2C(=O)O)cn1", "No"),
    ("Cc1cc(OCC2(O)CCS(=O)(=O)CC2)cc(C)c1-c1ccc(F)c2c1CC[C@H]2Nc1ccc([C@H]2C[C@@H]2C(=O)O)cn1", "No"),
    ("Cc1cc(-c2nnn(C)n2)cc(C)c1-c1cccc2c1CC[C@H]2Nc1ccc([C@@H]2C[C@H]2C(=O)O)cn1", "No"),
    ("COc1c(F)c(F)c(-c2ccc(F)c3c2CC[C@H]3Nc2ccc([C@H]3C[C@@H]3C(=O)O)cn2)c(F)c1F", "Yes"),
    ("Cc1cc(-c2cc(=O)n(C)cn2)cc(C)c1-c1ccc(F)c2c1CC[C@H]2Nc1ccc([C@H]2C[C@@H]2C(=O)O)cn1", "Yes"),
]

Input Cc1cc(OCCC(C)(C)O)cc(C)c1-c1ccc(F)c2c1CC[C@H]2Nc1ccc([C@@H]2C[C@H]2C(=O)O)cn1 ; condition: EC50 strictly below 20 nM. Does it hold?
No
